Experiment: Growth inhibition of human MCF10A cells at 30 ug/ml by MTT assay
Assay type: cell-based, MCF-10A
Details: MCF10A cells, read-out: GI
metric: inhibition at 30 ug/ml
The number alone won't do; follow it with the unit.

### Prompt Look up inhibition at 30 ug/ml of O=c1cc(-c2ccccc2)oc2cc(O)cc(O)c12 and report it.
### Response 29.6%

====

Assay: Growth inhibition of human MCF10A cells at 20 ug/ml by MTT assay
Type: cell-based, MCF-10A
Settings: MCF10A cells, read-out: GI
metric: inhibition at 20 ug/ml
Express your answer as a number followed by its unit.

### Prompt Give reported inhibition at 20 ug/ml value for O=c1cc(-c2ccccc2)oc2cc(O)cc(O)c12 [CHRYSIN]
### Response 21.4%

Hello, the source for this data is ChEMBL document CHEMBL2429759, in case you need it.
